System: PfHDP1 homeodomain (GST-tagged)
experimental details: gcPBM binding intensity (ln(normalized median fluorescence intensity)); higher = stronger DNA binding
In all, about 25,000 sequences were measured (“ln(normalized median fluorescence intensity)”: median about 6.7, highest 2% from about 10 on). The sample holds the highest values, similar sequences and a random draw of the others, so the mix is not that of the screen.
Threshold rule: gcPBM binding intensity (ln) greater than or equal to 7 is Yes; below that, No.

# bool: gcPBM binding intensity (ln) of ATTTTTTAAAAAGTAACACACACTCTTATAAATAAC [CACACA_site7668] >= 7
No

Confirm if gcPBM binding intensity (ln) reported for the sequence GCTTATAAGATATGCACACACAACACTTACAAAAAA [CACACA_site817] is 7 or above.
Yes

hey, is gcPBM binding intensity (ln) for this one >= 7? TTACATAATATATGTACACACGCAAATACTTAGAAT [CACACA_site320]
No

Item GAACACTAATAATGTTGTACACGTAATTATATATTT [XGTACX_site777] with gcPBM binding intensity (ln) of 7 or above?
No

Given TATTTTTATCAATTCACACATAAATATATTTATATG [CACACA_site5547] , state whether its gcPBM binding intensity (ln) is at least 7.
No

hey, is gcPBM binding intensity (ln) for this one >= 7? AAAAATAAAAAAATAAAAAATAAAAAAATAAAAAAT [CACACA_negctrl_site1425]
No

Please tell me: is the sequence AATTGTGCATTATATTGTACACGTGTTGTATATATT [XGTACX_site975] at or over 7 in terms of gcPBM binding intensity (ln)?
Yes

I'd appreciate it if you could say whether TTTTTTTTTATGTGCACACAAAAGATGCTTATATTT [CACACA_site2348] has gcPBM binding intensity (ln) at least equal to 7.
Yes

Does the sequence AAGAGAAATATATATTGTACAATAATTTTATTTGGT [XGTACX_site7642] have recorded gcPBM binding intensity (ln) that is 7 or more?
No

Quick check, gcPBM binding intensity (ln) >= 7? TGAACTCATAGGAAAACACACATATGGGTAATATAT [CACACA_site187]
No

Does the sequence ATATATAATTTTTGTTGTACATTATAAAAATAATTA [XGTACX_site2738] have recorded gcPBM binding intensity (ln) that is 7 or more?
No

# check: gcPBM binding intensity (ln) of AAAAGGAAGATATATACACACATACAAATATTTATA [CACACA_site7093] is greater than or equal to 7
No

Check if gcPBM binding intensity (ln) >= 7 (inclusive). Item: GAACAAATTAAATAGGTGCATTAACATGTTCTATTT [GTGCAC_site9729]
Yes

Please tell me: is the sequence ATTATGTTATTATTTTGTACACATAAATAATACGTT [XGTACX_site816] at or over 7 in terms of gcPBM binding intensity (ln)?
No

# check: gcPBM binding intensity (ln) of AGGCCTTTTAGTATTTCACACACGTAAATGTGTATA [CACACA_site8284] is greater than or equal to 7
No

Test whether the sequence AATATAATAATATTTTGTACATATCCTATGTATGAG [XGTACX_site8601] records gcPBM binding intensity (ln) of 7 or higher.
No

Please indicate if the recorded gcPBM binding intensity (ln) for TATATATCAATATGCACACACAAGAAGTAATTATAA [CACACA_site7487] meets or exceeds 7.
Yes

Would you say TATAAATGTATACAAGTGCATATTATTCACACATAA shows gcPBM binding intensity (ln) at minimum 7?
Yes

Can TTTTTTTTTTTTTTGTGTACATATAATGCACATTAT [XGTACX_site6505] be said to have gcPBM binding intensity (ln) at or above 7?
Yes

Dear colleague, could you confirm whether TTATTTATTTTTATATGTACACAAAAAAAAAAAAAA [XGTACX_site1459] has gcPBM binding intensity (ln) at or above 7?
No

Check the entry ATGCATATGTTTATTGCACACACCAAAAAGAAAACA [CACACA_site403] : does gcPBM binding intensity (ln) equal or exceed 7?
Yes

Say whether TTTCTATAATATATATGTACATATATAATATGTCGT [XGTACX_site3676] shows gcPBM binding intensity (ln) of 7 or more.
No

Can TGGAGGTCAGTTCACAGTACCCAGGAAATCTACGGA [XGTACX_site1995] be said to have gcPBM binding intensity (ln) at or above 7?
No

Confirm if gcPBM binding intensity (ln) reported for the sequence GTGTGCAAAAATTGTTGTACATTATATATAAAAAAA [XGTACX_site3246] is 7 or above.
Yes

Quick check: does TATATATATATCAAGTGTACTTGTGTTTGTAATATT [XGTACX_site8854] have gcPBM binding intensity (ln) greater than or equal to 7?
Yes

Record TTGTACATCTTTTGCACACGTAATGTTATTAAAATA [CACACA_site4827] ; criterion: gcPBM binding intensity (ln) no lower than 7. Met?
Yes

Confirm if gcPBM binding intensity (ln) reported for the sequence TAAATTGGTGCAAAGTGTACATATATATCTTTCCTA [XGTACX_site5458] is 7 or above.
Yes

Exam item: decide whether the reported gcPBM binding intensity (ln) for TGAACTCATAGGAAAACACACATATGTGCAATATAT [CACACA_site6231] is at least 7.
Yes

// inclusive: gcPBM binding intensity (ln) at least 7? input: TTAAAATTCAAAAAAAAAAATCAGAATATCAGAAAA [CACACA_negctrl_site1361]
No

Threshold query (gcPBM binding intensity (ln) >= 7) on GCATATGTTTATTGCACACACCAAAAAGAAAACATA [CACACA_site4384]
Yes

Check if gcPBM binding intensity (ln) >= 7 (inclusive). Item: TAGCTTATAAGATATGCACACACAACACTTACAAAA [CACACA_site8174]
Yes

Could you tell me if the measured gcPBM binding intensity (ln) of TGAACTCATAGGAAAACACACATATGTGTAATATAT [CACACA_site4267] reaches 7 or more?
Yes

Answer whether gcPBM binding intensity (ln) of TAGGTACATAAATTGGTGCAAAGTGTACATATATAT is greater than or equal to 7.
Yes

Evaluate CACAAAAAGAAACACACACACATATATATTTATTAT [CACACA_site3646] : gcPBM binding intensity (ln) at minimum 7?
No
